- target-under-test: xanthine oxidase (XOD) (Bos taurus)
- Construct: gene XDH; purified bovine liver XOD
- Sequence (P80457 2-1332): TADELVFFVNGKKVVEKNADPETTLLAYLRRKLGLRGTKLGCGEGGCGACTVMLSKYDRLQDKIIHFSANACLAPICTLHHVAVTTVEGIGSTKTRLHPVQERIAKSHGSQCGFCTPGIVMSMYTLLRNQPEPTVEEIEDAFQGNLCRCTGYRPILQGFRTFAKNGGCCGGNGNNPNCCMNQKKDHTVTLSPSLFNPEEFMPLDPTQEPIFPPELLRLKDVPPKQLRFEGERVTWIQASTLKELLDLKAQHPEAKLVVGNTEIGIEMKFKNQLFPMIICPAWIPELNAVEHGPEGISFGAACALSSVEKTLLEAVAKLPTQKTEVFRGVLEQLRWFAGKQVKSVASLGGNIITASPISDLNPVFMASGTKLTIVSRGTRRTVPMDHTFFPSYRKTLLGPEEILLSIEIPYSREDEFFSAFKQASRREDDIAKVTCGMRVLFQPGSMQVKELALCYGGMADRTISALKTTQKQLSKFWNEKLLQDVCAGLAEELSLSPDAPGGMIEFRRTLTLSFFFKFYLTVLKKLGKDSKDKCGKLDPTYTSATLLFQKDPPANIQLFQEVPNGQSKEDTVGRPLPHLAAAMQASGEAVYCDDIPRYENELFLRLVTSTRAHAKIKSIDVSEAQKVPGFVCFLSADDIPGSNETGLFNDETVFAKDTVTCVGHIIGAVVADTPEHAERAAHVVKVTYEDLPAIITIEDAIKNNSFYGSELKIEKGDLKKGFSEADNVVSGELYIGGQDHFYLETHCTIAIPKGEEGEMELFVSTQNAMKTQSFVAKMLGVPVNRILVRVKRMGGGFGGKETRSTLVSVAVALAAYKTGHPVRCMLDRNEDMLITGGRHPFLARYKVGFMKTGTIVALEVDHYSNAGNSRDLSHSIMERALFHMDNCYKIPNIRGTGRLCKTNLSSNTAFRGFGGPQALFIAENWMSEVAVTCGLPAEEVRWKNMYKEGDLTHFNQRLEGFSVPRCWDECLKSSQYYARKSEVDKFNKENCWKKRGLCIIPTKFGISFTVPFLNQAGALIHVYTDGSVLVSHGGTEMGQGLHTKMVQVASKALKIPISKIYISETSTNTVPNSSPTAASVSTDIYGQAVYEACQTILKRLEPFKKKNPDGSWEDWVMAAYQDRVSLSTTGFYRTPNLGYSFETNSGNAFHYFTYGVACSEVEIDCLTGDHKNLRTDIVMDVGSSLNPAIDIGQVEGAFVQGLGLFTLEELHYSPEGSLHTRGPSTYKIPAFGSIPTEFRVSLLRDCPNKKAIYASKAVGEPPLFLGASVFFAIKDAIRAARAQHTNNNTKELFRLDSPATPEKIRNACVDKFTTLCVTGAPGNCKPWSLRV
- assay-summary: enzyme kinetics, Lineweaver-Burk analysis with purified bovine liver XOD
- Type: biochemical
parameter-measured: Ki (mM)
// return numeric value only (unit: mM, not printed)

input: What measured Ki goes with Cn1c(=O)c2c(ncn2C)n(C)c1=O [caffeine, 1,3,7-trimethylxanthine] ?
output: 4.02
